# Test system: lesions of gastric mucosa
# assayName: Test with ethanol containing hydrochloric acid (erosion frequency and erosion index)
# Assay type: in vivo, Rats
# experimentalContext: ED50 of cetraxate divided by ED50 of the compound tested
endpoint: Inhibition of the erosion frequency Relative activity

Entry CCCCCCNCC(O)CO/N=C1\CCCC\C1=C/c1ccc(Cl)cc1 (racemic) , Inhibition of the erosion frequency Relative activity reported as 7.5

Entry CCCCCCNCC(O)CO/N=C1\CCCC\C1=C/c1ccccc1 (racemic) , Inhibition of the erosion frequency Relative activity reported as 7.4

Entry NC[C@H]1CC[C@H](C(=O)Oc2ccc(CCC(=O)O)cc2)CC1 [cetraxate, reference compound] , Inhibition of the erosion frequency Relative activity reported as 1.0

Entry CC(C)N(CC(O)CO/N=C1\CCCC\C1=C/c1ccc(Br)cc1)C(C)C (racemic) , Inhibition of the erosion frequency Relative activity reported as 9.9
